Listing: SPOT peptide array binding signal intensity of selected binders
# System Under Test: ScFus1
# Assay: SPOT peptide array binding signal intensity (averaged, normalized) (arbitrary units (background-subtracted, floor 0; scale differs between SH3 domains)); higher = stronger binding of the SH3 domain to the peptide
Measurement Type: SPOT peptide array binding signal intensity

[
  {
    "Binder": "RKRRTHLRLPLIRSN",
    "Op": "=",
    "Test Value": 573
  },
  {
    "Binder": "LYKRKPILLPDPKPL",
    "Op": "≤",
    "Test Value": 0
  },
  {
    "Binder": "NSMRPPLLIPAATTK",
    "Op": "=",
    "Test Value": 508
  },
  {
    "Binder": "VPKEPAPAPPPEPDM",
    "Op": "≤",
    "Test Value": 0
  },
  {
    "Binder": "KFIPSRPAPKPPSSA",
    "Op": "=",
    "Test Value": 0.5
  },
  {
    "Binder": "EQEEIAPSLPSRNSI",
    "Op": "=",
    "Test Value": 1
  },
  {
    "Binder": "SAPDIPPRSPNRNAH",
    "Op": "≤",
    "Test Value": 0
  },
  {
    "Binder": "WTQRRGPLVVYAEDN",
    "Op": "=",
    "Test Value": 28.5
  },
  {
    "Binder": "DKKTKPTPPPKPSHL",
    "Op": "=",
    "Test Value": 1
  },
  {
    "Binder": "VYTRTAFQIPGDDKI",
    "Op": "≤",
    "Test Value": 0
  },
  {
    "Binder": "LKHGWKPLRPIKLIS",
    "Op": "=",
    "Test Value": 50
  },
  {
    "Binder": "EAEEAAPQLPSRSSA",
    "Op": "≤",
    "Test Value": 0
  },
  {
    "Binder": "VATSTSPKLPPRGKQ",
    "Op": "=",
    "Test Value": 2.5
  },
  {
    "Binder": "AERNYAPRLPRRETS",
    "Op": "≤",
    "Test Value": 0
  },
  {
    "Binder": "NAGIRPKFILALNDE",
    "Op": "=",
    "Test Value": 159
  }
]
